Attribution: PubChem BioAssay (NCI)

test system: NCI-H522 lung; assay: NCI tumour cell line growth inhibition, 48 h; in the data active means GI50 below about 0.43 µM; inactive means the rest
Outcomes: yes (active), no (inactive)

1. CN1CCN(c2ccc(C(=O)Nc3cc(-c4cccc(NS(=O)(=O)c5ccccc5)c4)[nH]n3)cc2)CC1 : no
2. Cc1ccc(Sc2sc(-c3ccccc3)nc2[P+](c2ccccc2)(c2ccccc2)c2ccccc2)cc1 : yes
3. COc1ccc2c(c1)C1(C(=O)N2)C(C#N)=C(c2ccccc2)Nc2c1c(-c1ccccc1)nn2-c1ccccc1 (stereo unspecified) : no
4. NC1=Nc2cc(OCCCN3Cc4ccccc4C3)c(OCC3CC3)cc2C12CCCC2 : no
5. NC(=O)c1ccc2nc3c(n2c1)C(=O)C(=O)c1ccccc1-3 : no
6. Fc1ccc2[nH]cc(SSc3c[nH]c4ccc(F)cc34)c2c1 : no
7. O=C(COc1cccc(/C=C2\CSc3ccccc3C2=O)c1)c1ccc(Cl)cc1 : no
8. COc1ccccc1/C=C/C(=O)/C=C/c1ccccc1OC : no
9. N#C/C(=C\c1ccc(Br)cc1)n1nnc2ccccc21 : yes
10. CCOC(=O)Nc1nc2c(C)cccc2s1 : no
11. COc1cc(/C=C2\C(=O)Nc3cccc(Cl)c32)cc(OC)c1OC : no

* * *

test system: SK-MEL-5 melanoma; experiment: NCI tumour cell line growth inhibition, 48 h; in the data active = GI50 below about 0.43 µM; inactive = the rest
*1 amine or outer side, *2 acyl side, *3 side chain or, on linkers, in order; H or OH if unused. Where a SMILES comes first, the peptide text is derived from it. [ ]: non-standard residue; d: D form. ξ: configuration not given here. X21 = CC[C@@H](C)C(N[*:1])C(=O)[*:2]; ξR = N=C(N)NCCCC(N)C(=O)O; ξI = CCC(C)C(N)C(=O)O; ξL = CC(C)CC(N)C(=O)O; ξK = NCCCCC(N)C(=O)O; ξV = CC(C)C(N)C(=O)O; ξA = CC(N)C(=O)O
Outcomes: active, inactive

1. C[C@H](N)C(=O)N1C[C@H](CCCB(O)O)[C@](N)(C(=O)O)C1 : inactive
2. COc1ccccc1/C=C/C(=O)/C=C/c1ccccc1OC : inactive
3. CCOC(=O)c1cc(C(=O)c2cc(OC)c(OC)c(OC)c2)n2ccccc12 : active
4. COc1cc2c(cc1OCCCCOc1ccc(-c3nc4ccccc4s3)cc1)N=C[C@@H]1CCCN1C2=O : inactive
5. CCC(C)C1NC(=O)C(CC(C)C)NC(=O)C(C)NC(=O)C(C(C)C)NC(=O)C(CCCCN)NC(=O)C(CC(C)C)NC(=O)C(C(C)C)NC(=O)[C@H](C)NC(=O)C(C(C)CC)NC(=O)C(CCCN=C(N)N)NC(=O)C(CCCCN)NC(=O)C(CCCN=C(N)N)NC(=O)C(CCCCN)NC(=O)C([C@H](C)CC)NC(=O)C(CCCCN)NC1=O (stereo partly specified) (cyclo(A[ξV][ξL][ξK][ξV][ξA][ξL][ξI][ξK][X21][ξK][ξR][ξK][ξR][ξI])) : inactive
6. O=C1CCS/C(=N\S(=O)(=O)c2ccc(N3N=C4c5ccccc5CC4C3c3cccs3)cc2)N1C(=O)c1ccccc1 (stereo unspecified) : inactive
7. O=C1CS/C(=N\S(=O)(=O)c2ccc(N3N=C4c5ccccc5CC4C3c3ccc(Cl)cc3)cc2)N1c1ccccc1 (stereo unspecified) : inactive
8. OCc1ccc(N(CCN2CCCC2)Cc2ccc(F)cc2)cc1Cl : inactive
9. NC1=Nc2cc(OCCCN3Cc4ccccc4C3)c(OCC3CC3)cc2C12CCCC2 : inactive
10. CNCCCNCCCN1C(=O)c2ccc3c4c(ccc(c24)C1=O)C(=O)N(CCCNCc1ccccc1OC)C3=O : inactive
11. COc1ccc(-c2csc(NC(=O)c3cc(O)c(O)c(O)c3)n2)cc1 : inactive
12. Cn1c(=O)c(Oc2ccccc2)cc2cnc(NC3CCOCC3)nc21 : inactive
13. Cc1ccc(Sc2sc(-c3ccccc3)nc2[P+](c2ccccc2)(c2ccccc2)c2ccccc2)cc1 : active
14. CCCN(CCSSCCNc1nc(N(C)O)nc(N(C)O)n1)c1nc(N(C)O)nc(N(C)O)n1 : inactive
15. O=C1NN(c2ccccc2)C(=O)/C1=C/c1ccc(Br)o1 : inactive
16. O=C(Nc1cccc(-n2cc(-c3ccncc3)c(-c3ccc(O)c(Cl)c3)n2)c1)Nc1cccc(C(F)(F)F)c1 : inactive
